experiment: Displacement of [3H]diazepam from GABAA/BzR in rat brain membrane; type: cell membranes
readout kind: pIC50

// known answers, use as guide
{"compound": "Clc1cccc2c1[nH]c1c3c4ccccc4nc-3c[nH]c12", "pIC50": 7.1}
{"compound": "Cc1ccc2c(c1)ncc1c(=O)n(-c3csc(C)c3)[nH]c12", "pIC50": 8.87}
{"compound": "Cc1ccc2c(c1)[nH]c1c3c4ccccc4nc-3c[nH]c12", "pIC50": 8.1}
{"compound": "CCOC(=O)c1cc2c(cn1)Cc1ccccc1-2", "pIC50": 6.17}
{"compound": "O=C1C2C=Nc3ccccc3C2=NN1c1ccccc1 (centres undefined) [CGS-8216]", "pIC50": 9.51}

a: Oc1cccc2[nH]c3c4c5ccccc5nc-4c[nH]c3c12
b: Cc1cc(-n2[nH]c3c(cnc4cc(F)ccc43)c2=O)cs1
Just tell me: smaller pIC50 value, a or b ? Pick one and reply with its label.
a

Origin of the recorded values: ChEMBL document CHEMBL1141665
